target: human orexin-2 receptor (Homo sapiens (Human), UniProt O43614); experiment: Intracellular calcium measurement (FLIPR), CHO cells expressing human orexin-2 receptor, 3 nM orexin-A; assay type: cell-based; conditions: CHO cells expressing human orexin-2 receptor, FLIPR, 3 nM orexin-A; geometric mean if determined several times; read-out: IC50 OX2
Sequence (O43614 whole entry): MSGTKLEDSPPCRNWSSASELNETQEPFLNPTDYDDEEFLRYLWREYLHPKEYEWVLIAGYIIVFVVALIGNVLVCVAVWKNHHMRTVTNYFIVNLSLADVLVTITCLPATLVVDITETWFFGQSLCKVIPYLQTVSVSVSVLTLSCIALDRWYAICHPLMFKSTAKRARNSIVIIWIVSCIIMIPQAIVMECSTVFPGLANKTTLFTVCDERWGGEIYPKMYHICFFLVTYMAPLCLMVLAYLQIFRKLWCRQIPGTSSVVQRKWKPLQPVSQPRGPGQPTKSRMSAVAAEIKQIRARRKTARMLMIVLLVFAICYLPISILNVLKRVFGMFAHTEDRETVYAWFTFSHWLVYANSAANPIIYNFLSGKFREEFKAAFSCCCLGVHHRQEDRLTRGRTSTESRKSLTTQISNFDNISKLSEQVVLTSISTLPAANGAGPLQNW
pIC50: −log10 of the molar value.
The following compounds are listed with their measured pIC50 values.
MEASURED_PARAMETER: pIC50

>>> df
                                   compound  measured_parameter  measurement
0  COc1c(F)cccc1-c1noc([C@@H]2CCCN2C(=O)c2cccc(F)c2-c2ccn[nH]2)n1 [compound 202]               pIC50         8.00
1  Cc1ccc(-n2nccn2)c(C(=O)N2CCC[C@H]2c2nc(-c3ccc(C)c(C)n3)no2)c1 [compound 63]               pIC50         6.44
2  CCOc1c(F)cccc1-c1nc([C@@H]2CCCN2C(=O)c2cc(OC)c(C)cc2-n2nccn2)no1 [compound 323]               pIC50         9.00
3  CCOc1ncccc1-c1noc([C@@H]2CCCN2C(=O)c2cccc(F)c2-c2ccn[nH]2)n1 [compound 216]               pIC50         7.57

----------
molecular target: UniProtKB O43613; test: Intracellular calcium measurement (FLIPR), CHO cells expressing human orexin-1 receptor, 3 nM orexin-A; type: cell-based; conditions: CHO cells expressing human orexin-1 receptor, FLIPR, 3 nM orexin-A; geometric mean if determined several times; read-out: IC50 OX1
The following compounds are listed with their measured IC50 values.
MEASURED_PARAMETER: IC50 (nM)

>>> df
                           molecular_string  units_text  measurement
0  Cc1ccc(-n2nccn2)c(C(=O)N2CCC[C@H]2c2cc(-c3ccccc3OC(F)(F)F)no2)c1          nM            4
1  COc1ccc(C)cc1-c1nc([C@@H]2CCCN2C(=O)c2ccc(Cl)cc2-n2nccn2)no1          nM          136
2  COc1cccc(-c2nc([C@@H]3CCCN3C(=O)c3cc(C)ccc3-n3nccn3)no2)c1C          nM          325
3  Cc1cc(C(=O)N2CCC[C@H]2c2nc(-c3ccccc3Cl)no2)c(-n2nccn2)cc1C          nM          104

----------
target: orexin-1 (Homo sapiens (Human)); assay: Intracellular calcium measurement (FLIPR), CHO cells expressing human orexin-1 receptor, 3 nM orexin-A; assay type: cell-based; conditions: read-out: IC50 OX1
Sequence (O43613 whole entry): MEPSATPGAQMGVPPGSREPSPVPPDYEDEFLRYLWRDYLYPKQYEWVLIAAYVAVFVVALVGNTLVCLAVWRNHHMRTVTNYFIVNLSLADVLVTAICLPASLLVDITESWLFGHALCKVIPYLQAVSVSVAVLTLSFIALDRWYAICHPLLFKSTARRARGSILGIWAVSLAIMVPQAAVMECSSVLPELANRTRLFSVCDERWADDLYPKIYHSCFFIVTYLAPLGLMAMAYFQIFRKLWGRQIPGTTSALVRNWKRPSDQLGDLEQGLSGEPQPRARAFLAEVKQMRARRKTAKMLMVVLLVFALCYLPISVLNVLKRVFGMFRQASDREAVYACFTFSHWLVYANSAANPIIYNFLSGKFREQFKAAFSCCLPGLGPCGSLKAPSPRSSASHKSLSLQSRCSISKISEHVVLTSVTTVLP
pIC50: −log10 of the molar value.
MEASURED_PARAMETER: pIC50

>>> df
                            molecular_string  measurement
 0  Cc1c(Cl)cccc1-c1noc([C@@H]2CCCN2C(=O)c2cccc(F)c2-c2ccn[nH]2)n1         6.68
 1  CCc1ccccc1-c1nc([C@@H]2CCCN2C(=O)c2ccc(Cl)cc2-n2nccn2)no1         7.48
 2  COc1ccc(-n2nccn2)c(C(=O)N2CCC[C@H]2c2nc(-c3cccc(Cl)c3C)no2)c1         7.04
 3  Cc1ccc(-c2ncco2)c(C(=O)N2CCC[C@H]2c2nc(-c3cccc(Cl)c3C)no2)c1         7.35
 4  Cc1cccc(-c2nc([C@@H]3CCCN3C(=O)c3cc(Cl)ccc3-n3nccn3)no2)c1C         6.87
 5  Cc1ccc(C(=O)N2CCC[C@H]2c2nc(-c3cccc(Cl)c3C)no2)c(-n2nccn2)c1C         6.38
 6  Cc1ccc(C(=O)N2CCC[C@H]2c2cnc(-c3cccc(Cl)c3C)[nH]2)c(-n2nccn2)c1         5.68
 7  Cc1ccc(-n2nccn2)c(C(=O)N2CCC[C@H]2c2nc(-c3cccnc3Cl)no2)c1         5.58
 8  COc1cc(C)cc(-c2nc([C@@H]3CCCN3C(=O)c3ccc(Cl)cc3-n3nccn3)no2)c1         7.07
 9  COc1c(F)cccc1-c1nnc([C@@H]2CCCN2C(=O)c2cc(Cl)c(C)cc2-n2nccn2)[nH]1         7.96
10  Cc1ccc(-n2cccn2)c(C(=O)N2CCC[C@H]2c2nc(-c3cccc(Cl)c3C)no2)n1         6.01
11  COc1cc(C(=O)N2CCC[C@H]2c2nc(-c3cccc(Cl)c3C)no2)c(-n2cccn2)cc1C         6.88
12  O=C(c1ccccc1-n1nccn1)N1CCC[C@H]1c1nc(-c2ccccc2Cl)no1         5.57
13  COc1cc(C(=O)N2CCC[C@H]2c2nc(-c3ccccc3Cl)no2)c(-n2nccn2)cc1C         6.42
14  Cc1ccc(-n2nccn2)c(C(=O)N2CCC[C@H]2c2nc(-c3cccc(Cl)c3)no2)c1         7.04
15  CCOc1c(F)cccc1-c1noc([C@@H]2CCCN2C(=O)c2cc(OC)c(Cl)cc2-n2nccn2)n1         7.47
16  COc1ccc(C)c(-c2nc([C@@H]3CCCN3C(=O)c3cc(Cl)ccc3-n3nccn3)no2)c1         6.82

src = patent US9493446B2
